Test system: MOLM-13
Test: cells
Conditions: Homo sapiens, MOLM-13, 72 h
Description: Antiproliferative activity against human MOLM-13 cells assessed as reduction in cell viability incubated for 72 hrs by CCK8 assay
METRIC: log10 of IC50 (log10 of the value in µM)

[[record]]
mol_smiles = "COc1cc(N2CCNCC2)ccc1NC(=O)c1cnn2ccc(N3CCC[C@@H](N)C3)nc12"
study_target = "MOLM-13"
metric = "log10 of IC50"
val = -0.60

[[record]]
mol_smiles = "O=C(Nc1ccc(N2CCOCC2)cc1C(F)(F)F)c1cnn2ccc(N[C@H]3CCCNC3)nc12"
study_target = "MOLM-13"
metric = "log10 of IC50"
val = -0.95

[[record]]
mol_smiles = "COc1cc(N2CCN(C)CC2)ccc1NC(=O)c1cnn2ccc(N3CCC[C@@H](N)C3)nc12"
study_target = "MOLM-13"
metric = "log10 of IC50"
val = -1.77

[[record]]
mol_smiles = "O=C(Nc1ccc(N2CCOCC2)cc1C(F)(F)F)c1cnn2ccc(N[C@@H]3CCCCNC3)nc12"
study_target = "MOLM-13"
metric = "log10 of IC50"
val = -2.85

[[record]]
mol_smiles = "CC(C)Oc1cc(N2CCOCC2)ccc1NC(=O)c1cnn2ccc(N[C@@H]3CCCNC3)nc12"
study_target = "MOLM-13"
metric = "log10 of IC50"
val = -1.44

[[record]]
mol_smiles = "COc1ccccc1NC(=O)c1cnn2ccc(N[C@@H]3CCCNC3)nc12"
study_target = "MOLM-13"
metric = "log10 of IC50"
val = -1.71

[[record]]
mol_smiles = "N#Cc1cc(N2CCOCC2)ccc1NC(=O)c1cnn2ccc(N[C@@H]3CCCNC3)nc12"
study_target = "MOLM-13"
metric = "log10 of IC50"
val = -2.43

[[record]]
mol_smiles = "COc1cc(N(C)CCN(C)C)ccc1NC(=O)c1cnn2ccc(N[C@@H]3CCCNC3)nc12"
study_target = "MOLM-13"
metric = "log10 of IC50"
val = -1.63


----------
Listing of recorded IC50 by entry.
Tested on: MOLM-13
Assay: cells
Settings: Homo sapiens, MOLM-13, 72 h
METRIC: IC50 (nM)

[[record]]
mol_smiles = "O=C(Nc1ccc(N2CCOCC2)cc1C(F)(F)F)c1cnn2ccc(NC3CCNCC3)nc12"
reading_qualifier = "="
val = 155

[[record]]
mol_smiles = "CCOc1cc(N2CCOCC2)ccc1NC(=O)c1cnn2ccc(N[C@@H]3CCCNC3)nc12"
reading_qualifier = "="
val = 11.4

[[record]]
mol_smiles = "CN(c1ccn2ncc(C(=O)Nc3ccc(N4CCOCC4)cc3C(F)(F)F)c2n1)[C@@H]1CCCNC1"
reading_qualifier = ">"
val = 1000

[[record]]
mol_smiles = "COc1cc(N2CCOCC2)ccc1NC(=O)c1cnn2ccc(N3CCC[C@@H](N)C3)nc12"
reading_qualifier = "="
val = 28.3

[[record]]
mol_smiles = "COc1cc(N2CCC(N3CCOCC3)CC2)ccc1NC(=O)c1cnn2ccc(N[C@@H]3CCCNC3)nc12"
reading_qualifier = "="
val = 10.3

[[record]]
mol_smiles = "O=C(Nc1ccc(N2CCOCC2)cc1C(F)(F)F)c1cnn2ccc(N[C@@H]3CCCNC3)nc12"
reading_qualifier = "="
val = 1

[[record]]
mol_smiles = "COc1cc(N2CCCC2)ccc1NC(=O)c1cnn2ccc(N[C@@H]3CCCNC3)nc12"
reading_qualifier = "="
val = 19.5

[[record]]
mol_smiles = "O=C(Nc1ccc(N2CCOCC2)cc1C(F)(F)F)c1cnn2ccc(NC3CCCCC3)nc12"
reading_qualifier = ">"
val = 1000

[[record]]
mol_smiles = "O=C(Nc1ccc(N2CCOCC2)cc1F)c1cnn2ccc(N[C@@H]3CCCNC3)nc12"
reading_qualifier = "="
val = 16.5

